Field: inhibition. Provide a value for each of the molecules that follow.
# PROCEDURE TEXT: LFS_MB_P medulloblastoma growth inhibition, cell-based, chromothripsis tumors, cisplatin or BGB combos (AID 1671449);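 also: cells exposed for 96 hours; 0% = vehicle DMSO and 100% = killing by high DMSO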
# APPLIED CONDITIONS: LFS_MB_P medulloblastoma cells, measured here: combination with cisplatin, at 0.5 µM, stronger effect = higher value

Query: Given `CCn1cc(C(=O)O)c(=O)c2cc(F)c(N3CCNCC3)cc21` , state its recorded inhibition.
Response: 9.32%

Query: Another molecule: `O=C(O)CCCc1ccccc1`
Response: -35%

Query: Now try `CC(=O)OCC(CCn1cnc2cnc(N)nc21)COC(C)=O` .
Response: -33%

Query: Next molecule up: `O=C1c2c(O)ccc(O)c2C(=O)c2c(NCCNCCO)ccc(NCCNCCO)c21`
Response: -39.3%
